# EXPERIMENTAL SYSTEM: Polyphenol oxidase 1 [N65D,S176D,K211T,P277A,P406L] (Agaricus bisporus var. bisporus (strain H97 / ATCC MYA-4626 / FGSC 10389), UniProt Q00024, K211T/N65D/P277A/P406L/S176D)
# MEASUREMENT PROTOCOL: Enzymatic Activity Assay
# TEST CONDITIONS: pH 6.8
RECORDED ENDPOINT: pKi
Give bare numbers, as −log10 of the molar value.

The cases that follow already have their pKi on record.
SUBSTANCE SMILES: O=C(/C=C/c1ccc([N+](=O)[O-])cc1O)c1cc2ccccc2cc1O
pKi: 4.95
--
SUBSTANCE SMILES: O=C(/C=C/c1cc(O)cc(O)c1)c1cc2ccccc2cc1O
pKi: 5.42
--
SUBSTANCE SMILES: O=C(/C=C/c1ccc(O)c([N+](=O)[O-])c1)c1cc2ccccc2cc1O
pKi: 4.92
--
SUBSTANCE SMILES: O=C(/C=C/c1cc(O)ccc1O)c1cc2ccccc2cc1O
pKi: 4.97

# ---- query compound ----
(Q) Please give the measured pKi for this compound: `O=C(/C=C/c1ccc(O)cc1O)c1cc2ccccc2cc1O`
(A) 5.35
